assay: NCI Yeast Anticancer Drug Screen. Data for the mec2-1 strain (AID 157); conditions: S. cerevisiae mec2-1 strain, at 50.0 µM
Compounds without any hit were thinned out: in the full panel of roughly 79,000, 15% have a hit. The source made the active and inactive calls. Cut-off read from the data, not from the text of the source: active = growth inhibition above about 70%; inactive = the rest.
Hello, when you answer, please use one of the following outcomes: Y for active, N for inactive

molecule	label.value
S=C(N/N=C/c1ccc(Cl)cc1)NC1CN2CCC1CC2 (stereo not drawn)	N
CCC1(c2c(F)c(F)c(N)c(F)c2F)CCC(=O)NC1=O (stereo not drawn)	N
CCCO[As](=O)(OCCC)OCCC	N
COP(=O)(OC)/C(=C/c1c[nH]c2ccccc12)C(=O)O	N
[Cl][Sn]([CH2]c1ccccc1)([CH2]c1ccccc1)[CH2]c1ccccc1	Y

Continue with the molecule presented below.
Which result was noted for this molecule in the test: Cc1ccc(CI)cc1
N

====

assay: NCI Yeast Anticancer Drug Screen. Data for the rad50 strain (AID 155); conditions: S. cerevisiae rad50 strain growth inhibition; at 50.0 µM; stronger effect = higher value
The panel holds about 79,000 compounds, 15% with a hit somewhere; the sample as a whole holds those more often.
Think of 10% as a floor: if growth inhibition stands on it or above, it is t; beneath it, f.

Previously resolved entries follow.
molecule	label.value
Cc1cccc(C(=O)[O][Pb]([CH3])([CH3])[CH3])c1	t
C/C=C1/CN2CCC34C(=C(C(=O)OC)C1CC23)Nc1ccc(O)cc14 (stereo not drawn)	f
COC1C(O)C(C)OC(O[C@@H]2C[C@H]3CC[C@@H]4[C@H](CC[C@]5(C)[C@@H](C6=CC(=O)OC6)CC[C@]45O)[C@@]3(C)[C@H](O)C2)C1O (stereo partly drawn)	f
CCN1CC2(C)CCC(OC)C34C5CC6CCC(O)(C5C(=O)O6)C(C(O)C23)C14 (stereo not drawn)	f
N#CCCCBr	f
[Cl][Hg][c]1cccc(I)c1N=Nc1ccccc1	t
O=C([O-])CC(=O)[O-].[Cu+2].[OH3+].[OH3+]	t
CCCCCCCCCl	t
ClCCN(CCCl)c1ccc(/C=N/Nc2ccnc3ccccc23)cc1	t
COc1ccc(C(c2c(O)c3ccccc3oc2=O)c2c(O)c3ccccc3oc2=O)cc1	f

# bool: growth inhibition of C[n+]1c(/C=C/c2ccc(O)c3ccccc23)[se]c2ccccc21 >= 10%
t

Similarly, C1CN2CN3CCN(CN1C3)C2 ?
t

Next entry: CC(C)([N+](=O)[O-])S(=O)O
f

Try this molecule too: CC(Cl)(Cl)[N+](=O)[O-]
t

Can you handle O=S1(N2CC2)=NP(N2CC2)(N2CC2)=NP(N2CC2)(N2CC2)=N1 (stereo not drawn) next?
f

Next: C(=C/[PH+](c1ccccc1)c1ccccc1)/[PH+](c1ccccc1)c1ccccc1.[C-]#[O+].[C-]#[O+].[C-]#[O+].[C-]#[O+].[C-]#[O+].[Mo+2].[Mo+4].[c-]1[c-][c-][cH-][c-]1.[c-]1[c-][c-][cH-][c-]1
t

Next molecule: COc1ccc(-c2c[se]c(=S)s2)cc1
t

Another: O=C(OC1CN2CCC1CC2)N(c1ccccc1)c1ccccc1 (stereo not drawn)
f

And COc1cccc(C=C2C(=O)NC(=S)NC2=O)c1O ?
f

And the next one, O=C(CC(=O)C(F)(F)F)c1cccs1.O=C(CC(=O)C(F)(F)F)c1cccs1.O=C(CC(=O)C(F)(F)F)c1cccs1.[Eu] ?
t

Ok, now O=P(Cc1ccccc1)(Oc1ccccc1)Oc1ccccc1
t

// repeat for CCOC(=O)C1(C#N)C(C#N)(C#N)C12CCCCC2 (stereo not drawn) (tested in a mixture with another compound) and report
t

How about this molecule: CCOC(=O)N=C=O
f

Queued: CC(C)CC(C)(c1ccc(O)cc1)c1ccc(O)cc1
t
